These measurements were taken from patent EP3964206A1.

# Test system: SARS-CoV-2
# protocol details: microbe, parasite or virus in culture
# Assay type: cell-based
# condition notes: Severe acute respiratory syndrome coronavirus 2, 120 h
Where a name gives a salt, the structure may show the parent alone.
hey, just use Met if measured IC50 is less than 10 µM, otherwise Not met

- CC(C)(C)c1cc(C=C(C#N)C#N)cc(C(C)(C)C)c1O: Not met
- CCN(CC)Cc1cc(Nc2ccnc3cc(Cl)ccc23)ccc1O [Compound 106, hydrochloride]: Not met

Query block: A record lists CCC(C/C=C/c1ccccc1)(c1ccccc1)N(C)CC1CC1 (single isomer, unassigned; (+)) . Is its IC50 below 10 µM?
Result block: Not met

Query block: Decide: IC50 of CC[C@@]1([C@@H]2O[C@@H]([C@H]3O[C@@](O)(COC(=O)Nc4ccccc4)[C@H](C)C[C@@H]3C)C[C@@H]2C)CC[C@H]([C@]2(C)CC[C@]3(C[C@H](O)[C@@H](C)[C@@H]([C@@H](C)[C@@H](OC)[C@H](C)C(=O)O)O3)O2)O1 [Compound 98, sodium salt] strictly below 10 µM?
Result block: Met
